# experimental-target: kiwifruit GDP-L-Galactose Guanyltransferase EST 319998 (Actinidia chinensis)
# Sequence (A0A2R6QD99 entry or part of it): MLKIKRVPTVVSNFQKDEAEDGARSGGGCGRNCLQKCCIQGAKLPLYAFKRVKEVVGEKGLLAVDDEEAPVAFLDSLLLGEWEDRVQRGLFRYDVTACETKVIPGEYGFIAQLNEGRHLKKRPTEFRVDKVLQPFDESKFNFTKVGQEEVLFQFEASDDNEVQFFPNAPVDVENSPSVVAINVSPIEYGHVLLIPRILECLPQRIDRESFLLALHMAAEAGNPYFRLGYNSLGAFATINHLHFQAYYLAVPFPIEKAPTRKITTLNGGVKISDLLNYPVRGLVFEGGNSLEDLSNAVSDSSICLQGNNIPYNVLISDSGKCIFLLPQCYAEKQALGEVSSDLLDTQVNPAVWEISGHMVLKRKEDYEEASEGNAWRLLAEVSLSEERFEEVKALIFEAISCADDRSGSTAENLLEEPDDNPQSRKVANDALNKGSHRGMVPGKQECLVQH
# experimental-protocol: Continuous coupled assay of transferase activity with guanyl acceptors
# test-conditions: sugar phosphate as guanyl acceptor; epimerase generated substrate
Listed next: entries and their corresponding % of D-mannose-1P.

# molecule, % of D-mannose-1P / %
records = [
    ("O=P(O)(O)O[C@H]1O[C@H](CO)[C@H](O)[C@H](O)[C@H]1O", 113),
    ("O=P(O)(O)O[C@H]1O[C@H](CO)[C@@H](O)[C@H](O)[C@@H]1O [D-Mannose-1-P, D-Mannose-1-Phosphate]", 100),
    ("O=P(O)(O)OC1[C@@H](O)[C@H](O)C(O)[C@H](O)[C@@H]1O (stereo partly shown)", 126),
    ("O=P(O)(O)OC[C@H]1OC(O)[C@H](O)[C@@H](O)[C@@H]1O (stereo partly shown)", 24),
]
